- measurement description: Mycobacterium tuberculosis growth inhibition, primary screen (AID 1259343)
- measurement context: at 10 µM
Screen size: about 6,200 compounds; about 2,900 (47%) were called active. Rule as the data show it: active = inhibition above about 50%; inactive = the rest. The set was probably picked from earlier hits. The list shows a part of the results.
One label from this list, please: active, inactive

[[record]]
compound = "Fc1ccc(-n2nnc3c(SCc4cccc(F)c4)ncnc32)cc1"
label_value = "inactive"


Q: Record lookup: outcome of this test for O=C(CSc1ncnc2c1nnn2Cc1ccccc1F)OCc1ccccc1 ?
Result: inactive

Q: Called result for Cn1nc(C(C)(C)C)cc1NC(=O)c1ccc(C(F)(F)F)cc1
Result: inactive

Q: Hi, sorry to bother you, what did the test record for CCOC(=O)c1sc(N)c(C(=O)OCC)c1C ?
Result: inactive

The measurements presented in this section are drawn from PubChem BioAssay AID1259343.
